- TARGET_SYSTEM: D(2) dopamine receptor (Rattus norvegicus)
- Sequence (P61169 whole entry): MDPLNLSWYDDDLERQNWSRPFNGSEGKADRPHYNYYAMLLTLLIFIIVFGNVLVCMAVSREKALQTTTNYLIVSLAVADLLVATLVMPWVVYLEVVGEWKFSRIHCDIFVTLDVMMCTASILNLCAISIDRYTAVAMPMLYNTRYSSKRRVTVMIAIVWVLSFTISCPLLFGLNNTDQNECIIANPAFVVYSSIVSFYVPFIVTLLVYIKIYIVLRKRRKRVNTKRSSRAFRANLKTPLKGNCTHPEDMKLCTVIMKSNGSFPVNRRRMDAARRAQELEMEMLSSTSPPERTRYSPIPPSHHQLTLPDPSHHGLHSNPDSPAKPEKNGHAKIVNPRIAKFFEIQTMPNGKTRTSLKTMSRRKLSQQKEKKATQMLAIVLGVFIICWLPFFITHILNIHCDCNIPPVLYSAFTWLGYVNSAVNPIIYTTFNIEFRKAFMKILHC
- ASSAY_NAME: In vitro antagonistic activity against Dopamine receptor D2 was evaluated for the inhibition of [3H]spiperone binding
Measured IC50 values are reported for all entries that follow.

These recorded examples may help you get a feel for the data.
MOLECULE | IC50
C=CCN1CCCC1CNC(=O)c1cc2[nH]nnc2cc1OC (stereo unspecified) [ALIZAPRIDE] | 0.2 µM
CCN(CC)CCNC(=O)c1cc(Cl)c(N)cc1OCC#N | > 1 µM
CCN(CC)CCNC(=O)c1cc(Cl)c(N)cc1OC/C(C)=N/O | > 1 µM
CCN(CC)CCNC(=O)c1cc(Cl)c(N)cc1OC1CCCC[C@H]1O (stereo partly specified) | > 1 µM
CCN(CC)CCN1CCOc2cc(N)c(Cl)cc2C1=O | > 1 µM
CCN(CC)CCNC(=O)c1cc(Cl)c(N)cc1OCC(O)CO (stereo unspecified) | > 1 µM
CCN(CC)CCNC(=O)c1cc(Cl)c(N)cc1OCC(C)=O | > 1 µM
CCN(CC)CCNC(=O)c1cc(Cl)c(N)cc1OCOCCOC | > 1 µM
CCN(CC)CCNC(=O)c1cc(Cl)c(N)cc1OC1CCCC[C@@H]1O (stereo partly specified) | > 1 µM
CCN(CC)CCNC(=O)c1cc(Cl)c(N)cc1OCCC(C)O (stereo unspecified) | > 1 µM

Consider now this further molecule.
IC50 recorded for this molecule, CCN(CC)CCNC(=O)c1cc(Cl)c(N)cc1OC(C)C(C)O (stereo in doubt; 8g) , is > 1 µM

###

- Tested on: Mustela putorius furo
- ASSAY_NAME: In vivo antagonism of cisplatin-induced emesis in ferret measured as emetic episodes, twice the dose of 0.3 mg/kg and in 3 ferrets
- Assay type: functional
Label 1 when Emetic episodes is at or above 4; otherwise label 0.

MOLECULE | CLASSIFICATION
CCN(CC)CCNC(=O)c1cc(Cl)c(N)cc1OC1CCCCC1=O (stereo not drawn) | 0
CCN(CC)CCNC(=O)c1cc(Cl)c(N)cc1OC[C@@H](C)O (stereo in doubt; 8f) | 1
CCN(CC)CCNC(=O)c1cc(Cl)c(N)cc1OC1CCCC[C@H]1OC (stereo partly drawn) | 0
CCN(CC)CCNC(=O)c1cc(Cl)c(N)cc1OC(C)C(C)=O (stereo not drawn) [BATANOPRIDE] | 0
C=CCOc1cc(N)c(Cl)cc1C(=O)NCCN(CC)CC | 1

stdin: Check the entry CCC(=O)COc1cc(N)c(Cl)cc1C(=O)NCCN(CC)CC : does Emetic episodes equal or exceed 4?
stdout: 1

stdin: Check the entry CCN(CC)CCNC(=O)c1cc(Cl)c(N)cc1OC1CCCC[C@@H]1OC (stereo partly drawn) : does Emetic episodes equal or exceed 4?
stdout: 1

###

- TARGET_SYSTEM: D(2) dopamine receptor (Canis lupus familiaris)
- ASSAY_NAME: In vivo antagonism activity against dopamine D2 receptor was measured as emesis in dog when administered subcutaneously
- Format: functional, organism-based
READOUT_LABEL: ED50

These recorded examples may help you get a feel for the data.
MOLECULE | TARGET_SYSTEM | ED50
CCN(CC)CCNC(=O)c1cc(Cl)c(N)cc1OCC1OCCO1 | D(2) dopamine receptor (Canis lupus familiaris) | > 3 mg/kg
CCN(CC)CCNC(=O)c1cc(Cl)c(N)cc1OCc1cc(C)no1 | D(2) dopamine receptor (Canis lupus familiaris) | > 3 mg/kg
CCN(CC)CCC[S+]([O-])c1cc(Cl)c(N)cc1OC (configuration not stated) | D(2) dopamine receptor (Canis lupus familiaris) | > 1 mg/kg
CCN(CC)CCNC(=O)c1cc(Cl)c(N)c2c(C)c(C)oc12 | D(2) dopamine receptor (Canis lupus familiaris) | > 3 mg/kg
CCCC(=O)COc1cc(N)c(Cl)cc1C(=O)NCCN(CC)CC | D(2) dopamine receptor (Canis lupus familiaris) | > 3 mg/kg
CCN(CC)CCNC(=O)c1cc(Cl)c(N)cc1OCC(C)(C)O | D(2) dopamine receptor (Canis lupus familiaris) | > 3 mg/kg
CCC(=O)C(C)Oc1cc(N)c(Cl)cc1C(=O)NCCN(CC)CC (configuration not stated) | D(2) dopamine receptor (Canis lupus familiaris) | > 3 mg/kg
CCN(CC)CCNC(=O)c1cc(Cl)c(N)cc1OCC(=O)Cc1ccccc1 | D(2) dopamine receptor (Canis lupus familiaris) | > 3 mg/kg

ED50 recorded for this molecule, CCN(CC)CCNC(=O)c1cc(Cl)c(N)cc1OC[C@@H](C)O (stereo in doubt; 8e) , is > 3 mg/kg

ED50 recorded for this molecule, CCN(CC)CCNC(=O)c1cc(Cl)c(N)cc1OC(C)C(C)O (stereo in doubt; 8h) , is > 3 mg/kg
